- targetOrTestSystem: TR beta-LBD (thyroid hormone receptor beta) (Homo sapiens (Human), UniProt P10828)
- Sequence (P10828 217-461): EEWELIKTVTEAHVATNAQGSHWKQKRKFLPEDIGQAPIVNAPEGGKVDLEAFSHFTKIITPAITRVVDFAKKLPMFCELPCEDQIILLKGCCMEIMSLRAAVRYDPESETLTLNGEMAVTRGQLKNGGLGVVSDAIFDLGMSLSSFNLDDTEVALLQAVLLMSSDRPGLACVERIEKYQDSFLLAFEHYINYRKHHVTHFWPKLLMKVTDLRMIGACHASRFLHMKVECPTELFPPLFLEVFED
- procedureDetails: LanthaScreen TR-FRET Thyroid Receptor beta Coactivator Assay (agonist screening)
- Type: biochemical
- conditionNotes: THR beta over THR alpha, derived from T3-selectivity normalized data
- Procedure: Example B1: Time-Resolved Fluorescence Resonance Energy Transfer (TR-FRET) Assay for Thyroid Hormone Receptor Agonist Screening LanthaScreen™ TR-FRET Thyroid Receptor alpha Coactivator Assay kit (ThermoFisher) and LanthaScreen™ TR-FRET Thyroid Receptor beta Coactivator Assay kit (ThermoFisher) were used for agonist compound screening. Compounds in DMSO were diluted using ECHO Liquid Handler (Labcyte Inc.) into 384 plates in 10-point 3-fold series in duplicate (5 micro M final top concentration). […]
Below, each entry is listed alongside its reported THRβ-Selectivity.
Reply: number alone, nothing else.

Solved cases below.
Task: Any idea what its THRβ-Selectivity is? The molecule is CC(O)c1cc(Oc2c(Cl)cc(NC(=O)c3noc(=O)[nH]3)cc2Cl)n[nH]c1=O (centres unmarked)
Output: 88.9

Task: Fill in the blank: the reported THRβ-Selectivity of `CC[C@@H](O)c1cc(Oc2c(Cl)cc(NC(=O)c3noc(=O)[nH]3)cc2Cl)n[nH]c1=O` is ____.
Output: 27.9

Task: Item under review: CC(CO)c1cc(Oc2c(Cl)cc(NC(=O)c3noc(=O)[nH]3)cc2Cl)nn(C)c1=O (centres unmarked) . Reported THRβ-Selectivity?
Output: 15.8

Next:
Task: Can you look up the measured THRβ-Selectivity of `Cn1nc(Cc2c(Cl)cc(NC(=O)c3noc(=O)[nH]3)cc2Cl)cc(C2CC2)c1=O` for me?
Output: 19.5

Task: Entry `CC(C)c1cc(Oc2c(Cl)cc(-c3noc(=O)[nH]3)cc2Cl)n[nH]c1=O` has what THRβ-Selectivity?
Output: 0.7

Task: What value of measured THRβ-Selectivity is listed for `CC(C)c1cc(Oc2c(Cl)cc(NC(=O)c3noc(=O)[nH]3)c3c2CCC3)nn(C)c1=O` ?
Output: 39.5

Just for reference, patent US10800767B2 is where these values come from.
